- TARGET SYSTEM: T1, human LILRA5 (human, UniProt A6NI73 42-299)
- T1 construct: whole, on cells; also called hLILRA5
- T1 sequence (A6NI73 42-299): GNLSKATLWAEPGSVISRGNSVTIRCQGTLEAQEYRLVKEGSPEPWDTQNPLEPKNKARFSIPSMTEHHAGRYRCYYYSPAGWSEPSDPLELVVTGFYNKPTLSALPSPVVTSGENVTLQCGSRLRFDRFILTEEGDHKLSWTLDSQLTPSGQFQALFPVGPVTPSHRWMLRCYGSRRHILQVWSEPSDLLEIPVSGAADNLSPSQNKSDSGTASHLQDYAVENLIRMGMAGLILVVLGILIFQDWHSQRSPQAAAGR
- METHOD DESCRIPTION: FACS, 293F-hLILRA5 cells
For each of the binders below, state its MFI.
Numeric answer only, unit MFI assumed.

Need MFI of 7-B4-C1-C9 (antibody, V domains shown, mouse monoclonal hybridoma antibody) VH: EVQLQQSGTELVKPGASVKLSCKASGYTFTNYWMHWVKQRPGQGLEWIGEINPSNGRTNYNEKFKTKATLTVDKSSSTAYMQLSSLTSEDSAVYYCARSTYYGYDWYFDVWGAGTTVTVSS VL: DIVLTQSPSSMYASLGERVTITCKASQDINSYLSWFQQKPGKSPKTLIYRANRLLDGVPSRFSGGGSGQDYSLTISSLEHEDMGIYYCLQCDEFPHTFGGGTKLEIK , thanks.
28.2

Need MFI of 25-E7-A10-H6 (antibody, V domains shown, mouse monoclonal hybridoma antibody) VH: EVQLVESGGGLVQPGGSRKLSCAASGFTFSTFGMHWVRQAPEKGLEWVAYISSGSSTIYYADTVKGRFTISRDNPKNTLFLQMTSLRSEDTAMYYCARSTGTGAMDYWGQGTSVTVSS VL: DIQMTQTTSSLSASLGDRVTISCRASQDISKYLNWYQQKPDGTVKLLIYYTSRLHSGVPSRFSGSGSGTDYSLTISNLEQEDIATYFCQQGNTLPWTFGGGTKLEIK , thanks.
19.9
